Origin of the recorded values: patent US10940139B2

Catalogue of inhibition at 20 µM readings, one per entry.
target: KRas G12D mutant protein (Homo sapiens (Human), UniProt P01116, G12D); assay: Ras GTP binding domain inhibition assay (labeled GTP); conditions: at 20 μM; read-out: KRas G12D % Inh.
Sequence (P01116-2 other isoform, or with tags, fused parts or gaps G12D): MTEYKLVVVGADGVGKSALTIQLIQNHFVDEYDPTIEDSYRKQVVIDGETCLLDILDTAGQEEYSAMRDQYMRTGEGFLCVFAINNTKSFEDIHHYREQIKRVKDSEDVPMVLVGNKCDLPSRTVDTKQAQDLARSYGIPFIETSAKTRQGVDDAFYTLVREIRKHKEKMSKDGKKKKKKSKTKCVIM

Some solved entries appear below for comparison.
[[record]]
molecule = "Cc1sc2c(O)nc(-c3ccccn3)nc2c1C(=O)N1CCN(Cc2cccc(O)c2)CC1 [drawing 3829]"
target = "KRas G12D mutant protein (Homo sapiens (Human), UniProt P01116, G12D)"
obs_value = "25 to 50%"

[[record]]
molecule = "COc1ccc(-c2c(-c3ccccc3)sc3c(O)nc(-c4nccn4C)nc23)cn1 [drawing 3911]"
target = "KRas G12D mutant protein (Homo sapiens (Human), UniProt P01116, G12D)"
obs_value = "1 to 25%"

[[record]]
molecule = "COc1ccc(-c2csc3c(O)nc(-c4ccccn4)nc23)c(C)c1 [drawing 3753]"
target = "KRas G12D mutant protein (Homo sapiens (Human), UniProt P01116, G12D)"
obs_value = "51 to 75%"


Query: Could you tell me which inhibition at 20 µM is on file for COc1cnc(-c2ccccn2)nc1O [drawing 3787] ?
Reply: 51 to 75%

Query: Further, for COc1ccc(F)cc1-c1csc2c(O)nc(-c3ccccn3)nc12 [drawing 3746] ?
Reply: 51 to 75%

Query: Subsequent entry: COc1ccc(-c2c(C)sc3c(O)nc(-c4nccn4C)nc23)cn1 [drawing 3919]
Reply: 1 to 25%

Query: How about this molecule: COc1cnc(-c2cn(C)cn2)nc1O [drawing 3815]
Reply: 51 to 75%

Query: Note, next up: Cn1ccnc1-c1nc(O)c2sc(-c3ccccc3)c(-c3ccccc3Cl)c2n1 [drawing 3913]
Reply: 51 to 75%

Query: Again, but for COCCCNc1nc(-c2nccn2C)nc2sc(-c3ccccc3)c(-c3ccccc3)c12 [drawing 3888]
Reply: 51 to 75%

Query: How about this molecule: COc1cc(-c2csc3c(O)nc(-c4ccccn4)nc23)cnc1C(F)(F)F [drawing 3756]
Reply: 51 to 75%

Query: Continue with COc1cnc(-c2nccn2C)nc1O [drawing 3831]
Reply: 76 to 100%

Query: Same read-out for Cn1ccnc1-c1nc(O)c2scc(-c3cccc(Cl)c3)c2n1 [drawing 3935] ?
Reply: 25 to 50%

Query: Okay, and Oc1nc(-c2ccccn2)nc(Oc2cccc(C(F)(F)F)c2)c1O [drawing 3876] ?
Reply: 51 to 75%

Query: Moving on to COC1CCN(c2nc(-c3nccn3C)nc3sc(-c4ccccc4)c(-c4ccccc4)c23)C1 (stereo not drawn) [drawing 3889]
Reply: 51 to 75%

Query: Next: Cn1ccnc1-c1nc(O)c2scc(-c3ccccc3Cl)c2n1 [drawing 3933]
Reply: 25 to 50%

Query: COc1cccc(CN2CCN(C(=O)c3csc4c(O)nc(-c5ccccn5)nc34)CC2)c1 [drawing 3652] ?
Reply: 76 to 100%

Query: Follow-up entry: Cn1ccnc1-c1nc(O)c2sc(-c3ccccc3)c(-c3ccccc3)c2n1 [drawing 3906]
Reply: 0%

Query: And Oc1nc(-c2ccccn2)nc2c(C3CC3)csc12 [drawing 3836] ?
Reply: 51 to 75%

Query: Likewise for Cc1c(C(=O)O)sc2c(O)nc(-c3ccccn3)nc12 [drawing 3794] ?
Reply: 25 to 50%

Query: Also need COCCNc1nc(-c2nccn2C)nc2sc(-c3ccc(OC)cc3)c(-c3ccccc3)c12 [drawing 3915] , thanks.
Reply: 25 to 50%
